experiment: gradient 5% acetonitrile 3 min, to 50% in 2 min, to 85% in 15 min, held 3 min, 100 µL/min; conditions: column: Zorbax Extend-C18 2.1 x 50 mm; eluents: water / acetonitrile, 0.1% formic acid
endpoint.name: RP-LC retention time (s)
# output: bare number, implied unit s

Look over these answered cases.
molecule: Cc1nnc2ccc(NC(=O)Nc3ccccc3F)cn12
endpoint.name: RP-LC retention time
result.value: 658
--
molecule: O=C(CCn1c(N2CCCC2)nc2ccsc2c1=O)N1CCN(c2ccccc2F)CC1
endpoint.name: RP-LC retention time
result.value: 849
--
molecule: Cc1cccc(S(=O)(=O)N2CCCC(C)(C(=O)NCc3cccc(F)c3)C2)c1 (stereo not given)
endpoint.name: RP-LC retention time
result.value: 972
--
molecule: COc1ccc(-c2nnc(-c3ccc(C)c(S(=O)(=O)NC(C)C(=O)O)c3)o2)cc1OC (stereo not given)
endpoint.name: RP-LC retention time
result.value: 748
--
molecule: Cc1cc2c(=O)n(CC(=O)Nc3cccc(C(F)(F)F)c3)ccc2s1
endpoint.name: RP-LC retention time
result.value: 886
--
molecule: CCOc1ccc(C2Cn3nnc(-c4nc(-c5ccccc5Br)no4)c3CO2)cc1 (stereo not given)
endpoint.name: RP-LC retention time
result.value: 1230

query: Which RP-LC retention time reading was recorded for the molecule Cc1ccc(F)cc1NC(=O)Cn1nc2cc(-c3ccccn3)nc(C)n2c1=O ?
result: 767

query: Recorded RP-LC retention time for COc1ccc(-c2noc(CN3CCN(c4ccc(OC)cc4)CC3)n2)cc1 , please?
result: 809

query: I am curious: what RP-LC retention time value has been reported for CCCS(=O)(=O)c1nc2ccc(NS(=O)(=O)c3cc(C)c(C)cc3C)cc2s1 ?
result: 1040

query: Please give the measured RP-LC retention time for this molecule: CCOc1ccccc1C(=O)Nc1cccn2nc(CC)nc12
result: 1140

query: Value lookup for RP-LC retention time; key = COc1cccc(NC(=O)C2CCN(c3c(C)n(C)c(=O)n(C)c3=O)CC2)c1
result: 769

query: Suppose we examine the molecule COCC(=O)N1CCN(C2CCN(CCC(C)C)C2=O)CC1 (stereo not given) ; what RP-LC retention time value has been reported?
result: 535

query: What value of measured RP-LC retention time is listed for CC(C)(C)OC(=O)Cn1cnc2c(-c3ccc(Br)cc3)csc2c1=O ?
result: 1140

query: Field request: RP-LC retention time | item: CC(=O)Nc1ccc(NC(=O)C2CCCN(C(=O)c3cc(-c4ccncc4)n[nH]3)C2)cc1 (stereo not given)
result: 566

query: # RP-LC retention time lookup, item COc1ccccc1-c1cc(C(=O)N2CCN(c3ncccn3)CC2)c2ccccc2n1
result: 803

query: Fill in: RP-LC retention time of O=C(Cc1ccsc1)N1CCC2(CC1)N=C(c1ccc(Cl)cc1)NO2 is ___
result: 865

query: Quick one: RP-LC retention time for COCc1cn(C2CN(C(=O)c3sc(C)nc3C)C2)nn1 ?
result: 589

query: So what does the record say about RP-LC retention time for CCn1cc(-c2ccc(OC)cc2)cc1C(=O)O ?
result: 825

query: Recorded RP-LC retention time of Nc1nc(N2CCCC2)ncc1C(=O)NCc1ccccc1F , please.
result: 643

query: Fill in the blank: the reported RP-LC retention time of CCNC(=O)CC1=C2CCCCC2NC1=O (stereo not given) is ____.
result: 592

* * *

assay: gradient 5% acetonitrile 3 min, to 50% in 2 min, to 85% in 15 min, held 3 min, 100 µL/min; conditions: column: Zorbax Extend-C18 2.1 x 50 mm; eluents: water / acetonitrile, 0.1% formic acid
endpoint.name: RP-LC retention time (s)
Provide only the numeric value, understood in s.

Consider the following illustrative entries.
compound: O=C(NC1CC1)[C@@H]1C[C@H](Oc2cccnc2)CN1C(=O)C1CCC1
RP-LC retention time [s]: 557
--
compound: CCOc1cc(C)c(C)cc1S(=O)(=O)Nc1ccc(Cl)cn1
RP-LC retention time [s]: 961
--
compound: Cc1ccc(CNC(=O)N2CCCC2c2cc(C)on2)cc1 (stereo not given)
RP-LC retention time [s]: 798
--
compound: Cc1cc(C)cc(NC(=O)N2CCC(c3nc(C(=O)N(C)C)c(C)o3)CC2)c1
RP-LC retention time [s]: 730

query: Could you share which RP-LC retention time value was measured for Cc1ccccc1-c1nc(C2CCN(S(=O)(=O)c3ccc(F)cc3)CC2)no1 ?
result: 1180

query: Data request, read-out RP-LC retention time, for Cc1nc2nc(-c3ccc(C(C)(C)C)cc3)nn2c(C)c1CC(=O)N(C)Cc1ccccc1
result: 1110

query: Need RP-LC retention time, item CC(C)CNC(=O)c1nnc(-c2ccc(S(=O)(=O)N(C)C)cc2)o1
result: 787

query: Look up RP-LC retention time: Cn1c(=O)c2c(ncn2CC(=O)N2CCC(C)(c3noc(C4CC4)n3)CC2)n(C)c1=O
result: 672

query: Given the entry Cc1ccc(NC(=O)C2CCN(S(=O)(=O)c3c(C)[nH]c(C)c3C(=O)N3CCCC3)CC2)cc1F , report its measured RP-LC retention time.
result: 753

query: For CCC(=O)Nc1ccc(C2(C(=O)O)CCC2)cc1 , what is its reported RP-LC retention time?
result: 673

* * *

assay: gradient 5% acetonitrile 3 min, to 50% in 2 min, to 85% in 15 min, held 3 min, 100 µL/min; conditions: column: Zorbax Extend-C18 2.1 x 50 mm; eluents: water / acetonitrile, 0.1% formic acid
The label is 1 for RP-LC retention time below 700 s and 0 for RP-LC retention time equal to or exceeding 700 s.

molecule: Cc1ccc(-c2noc(C3CCCCN3)n2)cc1 (stereo not given)
category.label: 1

query: Does CC(C)NC(=O)N1CCCC(c2cccc(C(=O)NCC3CCCCC3)c2)C1 (stereo not given) have RP-LC retention time strictly under 700 s?
result: 0

query: Quick check: does CC(=O)Nc1ccc(C2(C(=O)NCc3ccc(F)cc3Cl)CCC2)cc1 have RP-LC retention time under 700 s?
result: 0

query: In plain terms, does Cn1cc(-c2cc3n(n2)CCC(=O)N3CC(=O)NCC2COCCO2)c2ccccc21 (stereo not given) come in under 700 s for RP-LC retention time?
result: 1

query: is_below(RP-LC retention time, 700 s) for COc1ccccc1-c1nc(-c2ccc(S(=O)(=O)N3CCC(C(=O)N4CCCC4)CC3)cc2)no1 ?
result: 0

* * *

test: gradient 5% acetonitrile 3 min, to 50% in 2 min, to 85% in 15 min, held 3 min, 100 µL/min; settings: column: Zorbax Extend-C18 2.1 x 50 mm; eluents: water / acetonitrile, 0.1% formic acid
Form field: RP-LC retention time (one value per entry).
Answer format: numeric, s implied, no suffix.

Worked examples follow.
compound: Cc1nnc(-c2nnc(NCc3ccc(Cl)cc3)c3ccccc23)o1
units.text: s
result.value: 886
--
compound: CCCc1ccc(S(=O)(=O)N2CCC(n3c(-c4ccoc4)nc4cccnc43)C2)cc1 (centres undefined)
units.text: s
result.value: 1020
--
compound: CCC1CCCCN1Cc1nc(Cn2ccn3nc(-c4ccc(C)c(C)c4)cc3c2=O)no1 (centres undefined)
units.text: s
result.value: 765
--
compound: CC1Cc2ccc(CNC(=O)NC(C)(C)C)cc2N1C(=O)c1ccccc1 (centres undefined)
units.text: s
result.value: 853

query: Give the measured RP-LC retention time of Cc1cccc(OCC(=O)Nc2ccc3c(c2)Sc2ncccc2C(=O)N3C(C)C)c1 .
result: 972

query: May I ask what RP-LC retention time has been recorded for Cc1nc(-c2cc3ccccc3nc2N2CCN(c3ccccc3)CC2)no1 ?
result: 666

query: Quick check: RP-LC retention time of O=C(c1cn2nc(Cl)ccc2n1)N1CCN(c2ccccc2F)CC1 ?
result: 836

query: What does the data say about its RP-LC retention time? Entry: CCCN1CCO[C@@H]2c3cc(O)ccc3OC[C@H]21
result: 645

query: Entry under review: Cc1ccc2[nH]cc(CCNC(=O)CCc3nnc(C(=O)Nc4ccccc4)s3)c2c1 . Reported RP-LC retention time?
result: 875

query: Entry Cc1ccc(CN2CCN(C3CCN(S(=O)(=O)c4ccc(C)c(Cl)c4)CC3)C(=O)C2=O)cc1 : reported RP-LC retention time = ?
result: 990

query: Look up RP-LC retention time for this compound: C=CCNC(=O)C1CCN(C(=O)Nc2ccc(NC(=O)Nc3ccc(C)c(C)c3)cc2)CC1
result: 740

query: Quick one: RP-LC retention time of Fc1ccc(OCc2nc(-c3ccc4c(c3)ncn4CCN3CCCCC3)no2)cc1 ?
result: 654

query: Quick one: RP-LC retention time for CC(C)c1cccc(NC(=O)Cn2cnc3nc(N4CCCC(C(=O)NC5CC5)C4)sc3c2=O)c1 (centres undefined) ?
result: 723

query: Consider the compound CCOC(=O)CCCn1nc(C)c2c(C)n(-c3ccccc3)nc2c1=O and give its measured RP-LC retention time.
result: 829

query: Any idea what its RP-LC retention time is? The compound is CC(=O)N1CCN(c2nc3c(s2)CC(C(=O)NCc2cc(F)cc(F)c2)CC3)CC1 (centres undefined)
result: 597

query: I'd like to know its RP-LC retention time. The compound in question is O=C(CN1C(=O)CCCc2cc(S(=O)(=O)N3CCCC3)ccc21)NCc1ccccc1
result: 885

query: Can you look up the measured RP-LC retention time of COc1cc(O)c(C(=O)/C=C/c2ccccc2)c(OC)c1 for me?
result: 1220

query: Report RP-LC retention time for COc1ccccc1NC(=O)CN1CCN(Cc2ccc(C)cc2)C(=O)C1=O please.
result: 771

query: What value of measured RP-LC retention time is listed for COCC(=O)N(C1CCOCC1)C1CCN(S(=O)(=O)c2ccc(F)cc2)CC1 ?
result: 749
